The measured values listed here are drawn from ChEMBL document CHEMBL5236545.

- test: Volume of distribution at steady state in mouse at 1 mg/kg,iv administered for 4 hrs
- Format: ADME, organism-based
- conditions: in vivo, read-out: Vdss
measured.endpoint: Vd (L/kg)

>>> readout_value("CC[C@](C)(O)C#Cc1cc2c(ccn2-c2cc(OC)nc(N)n2)cn1")
0.474

----------
- test: Half life in rat at 1 mg/kg,iv administered for 4 hrs
- Format: ADME, organism-based
- conditions: in vivo
Reported values of half-life for individual entries
measured.endpoint: half-life (h)

>>> readout_value("CC[C@](C)(O)C#Cc1cc2c(ccn2-c2ccnc(N)n2)cn1")
3.6
>>> readout_value("CC[C@](C)(O)C#Cc1cc2c(ccn2-c2cc(OC)nc(N)n2)cn1")
3.6
>>> readout_value("CC[C@](C)(O)C#Cc1cc2c(cn1)cnn2-c1ccnc(N)n1")
4.3

----------
- test: Intrinsic clearance in rat liver microsomes at 1 uM incubated upto 40 mins
- Format: ADME, Microsome
- conditions: read-out: CLH
Output: class label from CLint scaled at 1 µM. Mapping: lower band = under 40 mL/min/kg, central band = from 40 mL/min/kg up to 70 mL/min/kg, upper band = 70 mL/min/kg and over

>>> group("CC(C)(O)C#Cc1cc2c(cn1)c(C1CCOCC1)cn2-c1ccnc(N)n1")
"lower band"
>>> group("COc1cc2ccn(-c3ccnc(N)n3)c2cc1C#CC(C)(C)O")
"central band"
>>> group("CC(C)(O)C#Cc1cc2c(cn1)CCN2c1ccnc(N)n1")
"lower band"
>>> group("CC(C)(O)C#Cc1cc2c(cn1)cnn2-c1ccnc(N)n1")
"lower band"
>>> group("CN1CCC[C@@H](c2cn(-c3ccnc(N)n3)c3cc(C#CC(C)(C)O)ncc23)C1")
"lower band"
>>> group("CC[C@](C)(O)C#Cc1cc2c(ccn2-c2ccnc(N)n2)cn1")
"upper band"
>>> group("CC(C)(O)C#Cc1cc2c(ccn2-c2ccnc(N)n2)c(N2CCOCC2)n1")
"central band"
>>> group("CC(C)(O)C#Cc1cc2c(ccn2-c2ccnc(N)n2)cn1")
"central band"
>>> group("CC[C@](C)(O)C#Cc1cc2c(cn1)cnn2-c1ccnc(N)n1")
"lower band"
>>> group("CC(C)(O)C#Cc1cc2c(cn1)c(C1CC1)cn2-c1ccnc(N)n1")
"upper band"
>>> group("CC[C@](C)(O)C#Cc1cc2c(ccn2-c2cc(OC)nc(N)n2)cn1")
"upper band"
>>> group("COc1nc(C#CC(C)(C)O)cc2c1ccn2-c1ccnc(N)n1")
"central band"

----------
- test: Clearance in mouse at 1 mg/kg,iv administered for 4 hrs
- Assay type: ADME, organism-based
- conditions: in vivo
measured.endpoint: clearance (mL/min/kg)

>>> readout_value("CC[C@](C)(O)C#Cc1cc2c(ccn2-c2cc(OC)nc(N)n2)cn1")
67

----------
- test: Volume of distribution at steady state in rat at 1 mg/kg,iv administered for 4 hrs
- Format: ADME, organism-based
- conditions: in vivo, read-out: Vdss
measured.endpoint: Vd (L/kg)

>>> readout_value("CC[C@](C)(O)C#Cc1cc2c(ccn2-c2ccnc(N)n2)cn1")
2.17
>>> readout_value("CC[C@](C)(O)C#Cc1cc2c(ccn2-c2cc(OC)nc(N)n2)cn1")
4.87
>>> readout_value("CC[C@](C)(O)C#Cc1cc2c(cn1)cnn2-c1ccnc(N)n1")
2.48

----------
- test: Half life in mouse at 1 mg/kg,iv administered for 4 hrs
- Assay type: ADME, organism-based
- conditions: in vivo
measured.endpoint: half-life (min)

>>> readout_value("CC[C@](C)(O)C#Cc1cc2c(ccn2-c2cc(OC)nc(N)n2)cn1")
6

----------
- test: Intrinsic clearance in human liver microsomes at 1 uM incubated upto 40 mins
- Type: ADME, Microsome
- conditions: read-out: CLH
measured.endpoint: CLint scaled at 1 µM (mL/min/kg)

>>> readout_value("CC(C)(O)C#Cc1cc2c(ccn2-c2ccnc(N)n2)cc1F")
21
>>> readout_value("CC[C@](C)(O)C#Cc1cc2c(ccn2-c2ccnc(N)n2)cn1")
11
>>> readout_value("CC(C)(O)C#Cc1cc2c(ccn2-c2ccnc(N)n2)cn1")
19
>>> readout_value("CC(C)(O)C#Cc1cc2c(cn1)c(C1CCOCC1)cn2-c1ccnc(N)n1")
6
>>> readout_value("CC[C@](C)(O)C#Cc1cc2c(ccn2-c2cc(OC)nc(N)n2)cn1")
16
>>> readout_value("COc1nc(C#CC(C)(C)O)cc2c1ccn2-c1ccnc(N)n1")
10
>>> readout_value("CC(C)(O)C#Cc1cc2c(cn1)c(C1CC1)cn2-c1ccnc(N)n1")
10
>>> readout_value("COc1cc2ccn(-c3ccnc(N)n3)c2cc1C#CC(C)(C)O")
31

----------
Collected Stability values appear next to each entry.
- test: Stability of the compound at pH 7.4 by UHPLC-MS/MS analysis
- Assay type: physicochemical
- conditions: buffer
measured.endpoint: Stability

>>> readout_value("CN1CCC[C@@H](c2cn(-c3ccnc(N)n3)c3cc(C#CC(C)(C)O)ncc23)C1")
"99.3%"
>>> readout_value("CC[C@](C)(O)C#Cc1cc2c(cn1)cnn2-c1ccnc(N)n1")
"99.9%"
>>> readout_value("CC(C)(O)C#Cc1cc2c(ccn2-c2ccnc(N)n2)cc1F")
"100%"
>>> readout_value("CC[C@](C)(O)C#Cc1cc2c(ccn2-c2ccnc(N)n2)cn1")
"99.7%"
>>> readout_value("CC(C)(O)C#Cc1cc2c(cn1)CCN2c1ccnc(N)n1")
"82.7%"
>>> readout_value("Cn1nc(-c2ccnc(N)n2)c2cc(C#CC(C)(C)O)ccc21")
"100%"
